- Experiment Notes: APR_HepG2_CellCycleArrest_1hr: Apredica 1-hour HepG2 Assay for Cell Cycle Arrest (AID 2282666)
- Condition Parameters: high-content imaging, actives raise or lower the signal
Active and inactive are the calls of the source. The calls were made as follows: active = hit-call score of the fitted dose curve at least 0.9, where 1 is the maximum; inactive = score below 0.9.
Outcome codes: y (active), n (inactive)

>  <Compound>
Oc1ccc(Cl)cc1Cc1ccccc1

>  <Discrete Label>
y

$$$$
>  <Compound>
CNC(=O)Oc1cccc(N=CN(C)C)c1

>  <Discrete Label>
n

$$$$
>  <Compound>
[2H]C1([2H])[n+]2ccccc2-c2cccc[n+]2C1([2H])[2H]

>  <Discrete Label>
n

$$$$
>  <Compound>
C#CCN1C(=O)COc2cc(F)c(N3C(=O)C4=C(CCCC4)C3=O)cc21

>  <Discrete Label>
n

$$$$
>  <Compound>
CCOC1Oc2ccc(OS(C)(=O)=O)cc2C1(C)C (stereo unspecified)

>  <Discrete Label>
n

$$$$
>  <Compound>
O=C(NC(=O)c1c(F)cccc1F)Nc1ccc(OC(F)(F)C(F)OC(F)(F)F)c(Cl)c1 (stereo unspecified)

>  <Discrete Label>
n

$$$$
>  <Compound>
CCN(CC)C(=O)SCc1ccc(Cl)cc1

>  <Discrete Label>
n

$$$$
>  <Compound>
Oc1cc(Cl)ccc1Oc1ccc(Cl)cc1Cl

>  <Discrete Label>
y

$$$$
>  <Compound>
O=S1OCC2C(CO1)C1(Cl)C(Cl)=C(Cl)C2(Cl)C1(Cl)Cl (stereo unspecified)

>  <Discrete Label>
n

$$$$
>  <Compound>
CCCN(CCC)c1c([N+](=O)[O-])cc(C(F)(F)F)cc1[N+](=O)[O-]

>  <Discrete Label>
n

$$$$
>  <Compound>
CC1(c2ccc(Oc3ccccc3)cc2)OC(=O)N(Nc2ccccc2)C1=O (stereo unspecified)

>  <Discrete Label>
n

$$$$
